target: Thymidylate synthase (Homo sapiens)
Sequence (P04818 whole entry): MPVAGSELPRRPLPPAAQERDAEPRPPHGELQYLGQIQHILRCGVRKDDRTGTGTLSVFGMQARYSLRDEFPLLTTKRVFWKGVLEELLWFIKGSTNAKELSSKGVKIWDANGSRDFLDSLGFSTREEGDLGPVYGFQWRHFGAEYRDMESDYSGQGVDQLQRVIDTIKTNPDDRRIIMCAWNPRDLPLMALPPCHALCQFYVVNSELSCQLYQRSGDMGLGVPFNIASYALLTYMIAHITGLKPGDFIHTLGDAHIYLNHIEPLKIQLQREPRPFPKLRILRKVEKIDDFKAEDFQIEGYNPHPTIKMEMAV
pIC50: −log10 of the molar value.
measure: pIC50

{"columns": ["compound", "measure", "result"],
 "data": [
  ["Cc1cc2nc3c(=O)[nH]c(=O)nc-3n(C[C@H](O)[C@H](O)[C@H](O)COP(=O)(O)O)c2cc1C [RIBOFLAVIN 5'-PHOSPHATE]", "pIC50", "< 3.30"]
]}

---

assay: Binding affinity to Cryptosporidium hominis TS-DHFR by burst amplitude assay
pKd: −log10 of the molar value.

{"columns": ["compound", "pKd"],
 "data": [
  ["Cc1cc2nc3c(=O)[nH]c(=O)nc-3n(C[C@H](O)[C@H](O)[C@H](O)COP(=O)(O)O)c2cc1C [RIBOFLAVIN 5'-PHOSPHATE]", 4.32]
]}

---

assay: Inhibition of Cryptosporidium hominis TS-DHFR by spectroscopic assay
measure: IC50

{"columns": ["compound", "result"],
 "data": [
  ["CC(=O)N1CCN(c2ccc(OCC3COC(Cn4ccnc4)(c4ccc(Cl)cc4Cl)O3)cc2)CC1 (stereo unspecified)", "> 500 µM"],
  ["C[C@H]1O[C@@H](O[C@H]2[C@@H](O)C[C@H](O[C@H]3[C@@H](O)C[C@H](O[C@H]4CC[C@@]5(C)[C@H](CC[C@@H]6[C@@H]5C[C@@H](O)[C@]5(C)[C@@H](C7=CC(=O)OC7)CC[C@]65O)C4)O[C@@H]3C)O[C@@H]2C)C[C@H](O)[C@@H]1O", "> 500 µM"],
  ["CC(=O)N[C@@H]1[C@@H](O)[C@H](O[C@@H]2O[C@H](CO)[C@@H](O)[C@H](O)[C@H]2NC(C)=O)[C@@H](CO)O[C@H]1O", "> 500 µM"],
  ["Cc1cc2nc3c(=O)[nH]c(=O)nc-3n(C[C@H](O)[C@H](O)[C@H](O)COP(=O)(O)O)c2cc1C [RIBOFLAVIN 5'-PHOSPHATE]", "55 µM"],
  ["COc1cccc2c1C(=O)C1=C(C2=O)C(O)C2=C(C1O)[C@@H](C[C@@H]1C[C@H](N)[C@@H](O)[C@H](C)O1)C[C@@](O)(/C(C)=N/NC(=O)c1ccccc1)C2 (stereo partly specified)", "> 500 µM"],
  ["COC1=C(N)C(=O)c2nc(-c3nc(C(=O)O)c(C)c(-c4ccc(OC)c(OC)c4O)c3N)ccc2C1=O", "80 µM"]
]}

---

Biological target: Bifunctional dihydrofolate reductase-thymidylate synthase (Toxoplasma gondii)
Sequence (Q07422 whole entry): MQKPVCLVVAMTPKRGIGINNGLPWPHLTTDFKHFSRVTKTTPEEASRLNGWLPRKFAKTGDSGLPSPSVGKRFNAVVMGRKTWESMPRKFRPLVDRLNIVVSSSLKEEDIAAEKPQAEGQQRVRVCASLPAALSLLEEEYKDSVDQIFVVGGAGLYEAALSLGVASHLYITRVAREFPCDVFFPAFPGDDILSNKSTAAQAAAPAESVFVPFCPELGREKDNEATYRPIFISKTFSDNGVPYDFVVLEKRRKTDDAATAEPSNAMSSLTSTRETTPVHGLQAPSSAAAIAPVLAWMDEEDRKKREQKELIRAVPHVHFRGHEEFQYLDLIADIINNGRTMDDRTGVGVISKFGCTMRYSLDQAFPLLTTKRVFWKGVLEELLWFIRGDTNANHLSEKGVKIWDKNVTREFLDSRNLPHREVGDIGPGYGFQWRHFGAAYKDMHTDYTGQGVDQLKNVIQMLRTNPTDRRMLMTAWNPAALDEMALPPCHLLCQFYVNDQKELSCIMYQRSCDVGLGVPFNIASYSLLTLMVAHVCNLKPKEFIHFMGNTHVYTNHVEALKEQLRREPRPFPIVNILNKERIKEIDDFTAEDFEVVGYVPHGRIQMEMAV
Assay: Inhibition of Toxoplasma gondii TS-DHFR
pIC50: −log10 of the molar value.

{"columns": ["compound", "system", "pIC50"],
 "data": [
  ["Cc1cc2nc3c(=O)[nH]c(=O)nc-3n(C[C@H](O)[C@H](O)[C@H](O)COP(=O)(O)O)c2cc1C [RIBOFLAVIN 5'-PHOSPHATE]", "Bifunctional dihydrofolate reductase-thymidylate synthase (Toxoplasma gondii)", "< 3.30"]
]}

Values from ChEMBL document CHEMBL1154526
